Kd values, listed per item
target: HIV-1 YU2 gp120 (HIV-1 YU2, UniProt P35961 32-498); test: SPR
The reply should contain only the number, in nM.

Look over these answered cases.
• MVN_Q81K/M83R/G85Q (natural protein) MPNFSHTCSSINYDPDSTILSAECQARDGEWLPTELRLSDHIGNIDGELQFGDQNFQETCQDCHLEFGDGEQSVWLVCTCKTRDQEWKSTQILLDSQIDNNDSQLEIG = 77
• MVN_M83R (natural protein) MPNFSHTCSSINYDPDSTILSAECQARDGEWLPTELRLSDHIGNIDGELQFGDQNFQETCQDCHLEFGDGEQSVWLVCTCQTRDGEWKSTQILLDSQIDNNDSQLEIG = 52
• MVN_G43E (natural protein) MPNFSHTCSSINYDPDSTILSAECQARDGEWLPTELRLSDHIENIDGELQFGDQNFQETCQDCHLEFGDGEQSVWLVCTCQTMDGEWKSTQILLDSQIDNNDSQLEIG = 360
• MVN_G43E/Q81K (natural protein) MPNFSHTCSSINYDPDSTILSAECQARDGEWLPTELRLSDHIENIDGELQFGDQNFQETCQDCHLEFGDGEQSVWLVCTCKTMDGEWKSTQILLDSQIDNNDSQLEIG = 120
• MVN_G43E/M83R (natural protein) MPNFSHTCSSINYDPDSTILSAECQARDGEWLPTELRLSDHIENIDGELQFGDQNFQETCQDCHLEFGDGEQSVWLVCTCQTRDGEWKSTQILLDSQIDNNDSQLEIG = 130

Value of Kd reported for the binder MVN(Q81K/M83R) (natural protein) MPNFSHTCSSINYDPDSTILSAECQARDGEWLPTELRLSDHIGNIDGELQFGDQNFQETCQDCHLEFGDGEQSVWLVCTCKTRDGEWKSTQILLDSQIDNNDSQLEIG is 21

Value of Kd reported for the binder MVN_G85Q (natural protein) MPNFSHTCSSINYDPDSTILSAECQARDGEWLPTELRLSDHIGNIDGELQFGDQNFQETCQDCHLEFGDGEQSVWLVCTCQTMDQEWKSTQILLDSQIDNNDSQLEIG is 72
